Reference source: PubChem BioAssay (NCI)

System: SN12C renal
EXPERIMENT: NCI tumour cell line growth inhibition, 48 h
TGI listing for selected compounds.

# COMPOUND, TGI
rows = [
    ("COc1cc(/C=C/C(=O)c2c(=O)o[nH][n+]2-c2ccccc2)ccc1[O-]", "5.3 µM"),
    ("CC(C)=CCC[C@@H](C)C1=C(Nc2ccccc2Cl)C(O)=C(C)C(=O)C1=O", "25.2 µM"),
    ("COC(=O)C1C(O)CC(c2ccccn2)N(Cc2ccccc2)C1c1ccccn1 (centres undefined)", "> 100 µM"),
    ("CC1OC2=N[C@@H]1C(=O)N[C@@H](C(C)C)C1=N[C@H](C(=O)N[C@@H](C(C)C)C3=N[C@H](C(=O)N[C@@H](C(C)C)C4=N[C@H](C(=O)N[C@H]2C(C)C)C(C)O4)C(C)O3)C(C)O1 (some centres undefined)", "> 10 µM"),
    ("CCCCS(=O)CCC(N)C(=O)O (centres undefined)", "> 100 µM"),
    ("O=C1NC(=O)/C(=C/c2ccc(S(=O)(=O)N/N=C/c3ccc(Cl)cc3)cc2)N1", "> 100 µM"),
    ("O=C(c1ccccc1)C1CCCCN1C(=O)c1ccccc1 (centres undefined)", "> 100 µM"),
    ("c1ccc(CCN2CCc3[nH]c4ccccc4c3C2)cc1", "62.2 µM"),
    ("COc1ccc2c(c1)C(=O)c1c-2n(CCCN=[N+]=[N-])c(=O)c2cc(N(C)C)ccc12", "> 100 µM"),
]
